target: ATP-dependent translocase ABCB1 (Homo sapiens); assay: Inhibition of human MDR1 expressed in mouse L5178 cells assessed as rhodamine-123 accumulation measured as fluorescence activity ratio at 20 uM after 20 mins by flow cytometry relative to control; type: cell-based; details: l5178, 20 min
Sequence (P08183 whole entry): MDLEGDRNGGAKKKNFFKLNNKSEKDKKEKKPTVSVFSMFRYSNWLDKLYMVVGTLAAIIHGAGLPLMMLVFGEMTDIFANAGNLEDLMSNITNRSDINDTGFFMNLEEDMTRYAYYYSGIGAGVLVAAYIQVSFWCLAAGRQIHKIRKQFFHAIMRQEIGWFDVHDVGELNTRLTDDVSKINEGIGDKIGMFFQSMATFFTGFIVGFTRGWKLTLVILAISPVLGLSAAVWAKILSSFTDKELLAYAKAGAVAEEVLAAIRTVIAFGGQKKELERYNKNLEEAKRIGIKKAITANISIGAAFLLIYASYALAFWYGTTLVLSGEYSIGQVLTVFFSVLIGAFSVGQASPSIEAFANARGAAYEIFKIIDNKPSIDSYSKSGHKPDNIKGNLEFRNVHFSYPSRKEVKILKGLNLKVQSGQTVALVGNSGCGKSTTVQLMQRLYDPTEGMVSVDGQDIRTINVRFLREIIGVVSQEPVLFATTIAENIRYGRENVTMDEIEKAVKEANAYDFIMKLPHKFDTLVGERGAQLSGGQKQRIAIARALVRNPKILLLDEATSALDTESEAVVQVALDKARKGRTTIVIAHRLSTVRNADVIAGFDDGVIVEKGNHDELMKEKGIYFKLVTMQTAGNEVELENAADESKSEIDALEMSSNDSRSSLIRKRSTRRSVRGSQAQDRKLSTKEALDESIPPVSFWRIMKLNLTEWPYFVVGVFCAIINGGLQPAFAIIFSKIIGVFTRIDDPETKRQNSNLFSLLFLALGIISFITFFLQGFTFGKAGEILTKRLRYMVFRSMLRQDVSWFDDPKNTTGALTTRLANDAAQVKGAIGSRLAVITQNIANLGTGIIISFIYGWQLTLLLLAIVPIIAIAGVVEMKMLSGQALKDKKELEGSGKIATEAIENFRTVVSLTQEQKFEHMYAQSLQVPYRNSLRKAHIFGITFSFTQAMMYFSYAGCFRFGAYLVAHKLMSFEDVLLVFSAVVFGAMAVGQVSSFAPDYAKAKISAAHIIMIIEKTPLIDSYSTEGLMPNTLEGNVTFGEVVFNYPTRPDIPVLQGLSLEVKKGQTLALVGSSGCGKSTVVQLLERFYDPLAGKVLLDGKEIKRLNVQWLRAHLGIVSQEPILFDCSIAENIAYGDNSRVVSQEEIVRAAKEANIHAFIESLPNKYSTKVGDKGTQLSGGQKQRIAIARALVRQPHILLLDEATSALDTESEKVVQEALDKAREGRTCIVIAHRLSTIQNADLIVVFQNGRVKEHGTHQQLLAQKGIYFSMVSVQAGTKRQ
metric: Ratio

| compound | metric | test result |
| --- | --- | --- |
| COC(=O)CN1C(=O)N(CCCCN2CCN(c3ccc(F)cc3)CC2)C2(C1=O)c1ccccc1-c1ccccc12 | Ratio | 71.11 |
| COC(=O)CN1C(=O)N(CC(O)CN2CCN(c3ccccc3)CC2)C(c2ccccc2)(c2ccccc2)C1=O (centres undefined) | Ratio | 90.43 |
| COC(=O)CN1C(=O)N(CCCCN2CCN(c3ccccc3F)CC2)C(c2ccccc2)(c2ccccc2)C1=O | Ratio | 99.09 |
| COC(=O)CN1C(=O)N(CCCCN2CCN(c3ccccc3)CC2)C(c2ccccc2)(c2ccccc2)C1=O | Ratio | 99.82 |

---

experiment: Cytotoxicity against sensitive mouse L5178 cells after 24 hrs by MTT assay; assay type: cell-based; details: l5178, 24 h
Recorded Activity by entry
Please state the figure in µM; there is no need to write the unit.

Below: 2 compounds and their reported Activity.
| compound | unit text | Activity |
| --- | --- | --- |
| COC(=O)CN1C(=O)N(CC(O)CN2CCN(c3ccccc3)CC2)C(c2ccccc2)(c2ccccc2)C1=O (stereo not given) | µM | 33 |
| COC(=O)CN1C(=O)N(CCCCN2CCN(c3ccccc3)CC2)C(c2ccccc2)(c2ccccc2)C1=O | µM | 13 |

*Q* What measured Activity goes with `COC(=O)CN1C(=O)N(CCCCN2CCN(c3ccccc3)CC2)C2(C1=O)c1ccccc1-c1ccccc12` ?
*A* 53

Source of measurements: ChEMBL document CHEMBL3797155
